This section lists pIC50 readings for p110γ (Homo sapiens, UniProt P48736).
pIC50: −log10 of the molar value.
measured parameter: pIC50

Need pIC50 of C#Cc1cnc(N)nc1N1CCC[C@H]1c1nn2ccc(Cl)c2c(=O)n1-c1ccccc1 , thanks.
7.74

Also need CS(=O)(=O)c1cccc(-n2c([C@@H]3CCCN3c3ncnc4[nH]cnc34)nn3ccc(Cl)c3c2=O)c1 , thanks.
6.92

Also need C[S+]([O-])c1n[nH]c2ncnc(N3CCC[C@H]3c3nn4ccc(Cl)c4c(=O)n3-c3ccccc3)c12 (stereo partly shown) , thanks.
7.96

Also need CC(Nc1ncnc2[nH]cc(C#N)c12)c1cc2ccc(Cl)n2c(=O)n1-c1cccc(F)c1 (stereo not shown) , thanks.
8.00

Also need CC(=O)c1cnc(N)nc1N1C[C@H](C)[C@H]1c1nn2ccc(F)c2c(=O)n1-c1ccccc1 , thanks.
8.30

(P) O=c1c2c(Cl)ccn2nc([C@@H]2CCCN2c2ncnc3[nH]cnc23)n1-c1ccc(F)cc1
(Q) CC(Nc1ncnc2[nH]cnc12)c1cc2ccc(Cl)n2c(=O)n1-c1ccccc1 (stereo not shown)
Just curious, which one has the larger pIC50 reading, P or Q ? Reply briefly: the label of your chosen item.
Q

(a) CSc1n[nH]c2ncnc(N3CCC[C@H]3c3nn4ccc(Cl)c4c(=O)n3-c3ccccc3)c12
(b) CC(Nc1ncnc2[nH]cc(S(C)(=O)=O)c12)c1cn2ccc(Cl)c2c(=O)n1-c1ccccc1 (stereo not shown)
(c) C[S+]([O-])c1c[nH]c2ncnc(N3CCC[C@H]3c3nn4ccc(Cl)c4c(=O)n3-c3cccc(F)c3)c12 (stereo partly shown) [Compound 198]
Order the records by pIC50, with each subsequent value no larger than the one before. Give your ranking as a list of the labels in the requested order.
c, a, b

---

- measured target: p110δ/p85α (Homo sapiens, UniProt O00329)
- Sequence (O00329 whole entry): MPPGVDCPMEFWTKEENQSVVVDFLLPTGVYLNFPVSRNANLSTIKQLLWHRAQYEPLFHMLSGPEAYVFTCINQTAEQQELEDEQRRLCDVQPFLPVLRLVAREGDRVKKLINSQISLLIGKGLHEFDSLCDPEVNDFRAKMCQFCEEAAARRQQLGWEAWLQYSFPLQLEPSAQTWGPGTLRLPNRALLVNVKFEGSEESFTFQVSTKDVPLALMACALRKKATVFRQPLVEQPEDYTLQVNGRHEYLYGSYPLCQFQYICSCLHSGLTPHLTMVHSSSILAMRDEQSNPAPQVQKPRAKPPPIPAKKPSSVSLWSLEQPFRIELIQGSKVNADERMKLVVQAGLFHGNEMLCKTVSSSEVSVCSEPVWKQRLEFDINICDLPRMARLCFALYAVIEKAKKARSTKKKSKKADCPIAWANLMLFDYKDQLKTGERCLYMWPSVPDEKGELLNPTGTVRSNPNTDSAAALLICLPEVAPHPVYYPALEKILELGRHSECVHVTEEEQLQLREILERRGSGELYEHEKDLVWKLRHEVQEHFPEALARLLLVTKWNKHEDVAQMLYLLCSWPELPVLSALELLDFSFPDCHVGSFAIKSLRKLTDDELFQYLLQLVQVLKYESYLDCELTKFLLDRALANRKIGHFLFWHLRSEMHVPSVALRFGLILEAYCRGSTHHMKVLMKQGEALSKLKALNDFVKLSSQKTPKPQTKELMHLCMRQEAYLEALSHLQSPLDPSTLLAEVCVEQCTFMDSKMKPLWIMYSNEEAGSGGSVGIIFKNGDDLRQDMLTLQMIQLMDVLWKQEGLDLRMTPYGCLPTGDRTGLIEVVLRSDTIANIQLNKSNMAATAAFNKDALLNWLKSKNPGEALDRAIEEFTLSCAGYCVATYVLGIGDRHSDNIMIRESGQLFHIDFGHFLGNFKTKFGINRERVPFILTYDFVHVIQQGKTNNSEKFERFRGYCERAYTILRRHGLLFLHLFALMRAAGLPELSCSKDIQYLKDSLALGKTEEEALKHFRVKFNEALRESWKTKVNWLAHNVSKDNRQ
- Sequence (P27986 whole entry partner): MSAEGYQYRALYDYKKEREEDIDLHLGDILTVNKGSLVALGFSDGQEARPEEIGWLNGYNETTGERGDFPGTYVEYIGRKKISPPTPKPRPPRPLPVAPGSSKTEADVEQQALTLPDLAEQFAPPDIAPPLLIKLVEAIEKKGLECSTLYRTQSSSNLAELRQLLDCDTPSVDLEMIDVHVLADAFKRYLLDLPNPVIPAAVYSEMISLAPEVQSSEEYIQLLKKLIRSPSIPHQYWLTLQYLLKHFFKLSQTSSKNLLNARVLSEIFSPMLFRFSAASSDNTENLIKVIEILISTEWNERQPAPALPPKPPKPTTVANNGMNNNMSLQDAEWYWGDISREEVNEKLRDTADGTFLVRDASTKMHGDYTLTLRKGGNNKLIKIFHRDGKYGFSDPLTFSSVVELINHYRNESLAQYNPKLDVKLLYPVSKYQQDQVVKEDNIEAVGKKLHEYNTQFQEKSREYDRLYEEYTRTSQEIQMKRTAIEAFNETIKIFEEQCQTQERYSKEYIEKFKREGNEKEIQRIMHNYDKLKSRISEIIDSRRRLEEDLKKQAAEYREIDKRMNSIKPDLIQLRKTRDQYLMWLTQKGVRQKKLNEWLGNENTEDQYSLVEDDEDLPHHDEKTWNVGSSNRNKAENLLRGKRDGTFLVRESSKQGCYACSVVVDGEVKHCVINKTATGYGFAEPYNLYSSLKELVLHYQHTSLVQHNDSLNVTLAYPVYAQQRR
- assay explanation: Transcreener KINASE Assay, kinase inhibition of p110δ/p85α
- Format: biochemical
- assay context: 1 uM test compound
measured parameter: PI3Kδ IH % @ 1 uM

Known results for molecules:
Record N#Cc1c[nH]c2ncnc(N3C[C@@H](F)C[C@H]3c3nn4ccc(Cl)c4c(=O)n3-c3ccccn3)c12 [Compound 345] : what is its PI3Kδ IH % @ 1 uM with p110δ/p85α (Homo sapiens, UniProt O00329)?
>100%

Also need Nc1ncnc(N2CCC[C@H]2c2nn3ccc(Cl)c3c(=O)n2-c2ccccc2)c1Cl [Compound 27] , thanks.
>100%

Let's switch to this molecule now.
Record Nc1ccc(-c2c[nH]c3ncnc(N4CC[C@H]4c4nn5ccc(Cl)c5c(=O)n4-c4ccccc4)c23)cn1 [Compound 101] : what is its PI3Kδ IH % @ 1 uM with p110δ/p85α (Homo sapiens, UniProt O00329)?
>100%

---

- measured target: p110γ (Homo sapiens)
- Sequence (P48736 whole entry): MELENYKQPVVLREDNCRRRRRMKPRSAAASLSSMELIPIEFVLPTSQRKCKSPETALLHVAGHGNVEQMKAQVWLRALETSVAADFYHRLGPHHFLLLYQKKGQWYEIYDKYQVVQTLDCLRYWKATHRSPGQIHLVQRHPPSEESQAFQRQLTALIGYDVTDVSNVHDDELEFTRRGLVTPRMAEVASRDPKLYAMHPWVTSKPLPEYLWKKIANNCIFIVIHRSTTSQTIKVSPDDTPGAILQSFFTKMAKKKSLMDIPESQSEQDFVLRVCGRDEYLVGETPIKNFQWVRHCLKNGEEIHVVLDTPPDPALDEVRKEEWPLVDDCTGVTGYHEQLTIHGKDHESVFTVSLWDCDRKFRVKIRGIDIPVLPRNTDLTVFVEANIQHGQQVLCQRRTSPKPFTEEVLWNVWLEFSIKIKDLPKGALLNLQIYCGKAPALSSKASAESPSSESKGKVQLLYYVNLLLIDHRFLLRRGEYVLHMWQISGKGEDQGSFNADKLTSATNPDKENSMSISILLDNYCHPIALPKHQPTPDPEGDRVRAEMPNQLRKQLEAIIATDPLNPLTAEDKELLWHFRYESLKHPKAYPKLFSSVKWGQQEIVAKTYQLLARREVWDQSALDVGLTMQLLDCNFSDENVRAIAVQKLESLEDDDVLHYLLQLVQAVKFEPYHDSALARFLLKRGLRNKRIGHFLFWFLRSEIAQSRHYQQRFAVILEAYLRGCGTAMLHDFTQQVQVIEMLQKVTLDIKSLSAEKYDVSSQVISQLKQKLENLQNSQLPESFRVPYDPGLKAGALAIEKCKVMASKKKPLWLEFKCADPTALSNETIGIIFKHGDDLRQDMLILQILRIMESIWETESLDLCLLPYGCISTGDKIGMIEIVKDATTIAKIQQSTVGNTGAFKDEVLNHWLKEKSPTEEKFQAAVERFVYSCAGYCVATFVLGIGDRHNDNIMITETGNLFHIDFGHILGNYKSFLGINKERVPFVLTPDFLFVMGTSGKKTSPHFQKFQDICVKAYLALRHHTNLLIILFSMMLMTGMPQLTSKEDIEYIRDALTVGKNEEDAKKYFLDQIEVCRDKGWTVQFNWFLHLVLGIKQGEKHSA
- assay explanation: Transcreener KINASE Assay, kinase inhibition of p110γ
- Format: biochemical
- assay context: 1 uM test compound
measured parameter: PI3Kγ IH % @ 1 uM (%)

Need PI3Kγ IH % @ 1 uM of Cc1nc(N)nc(N2C[C@H](C)C2c2nn3ccc(Cl)c3c(=O)n2-c2ccc(F)cc2)c1C#N (stereo partly shown) , thanks.
92.4

Also need Nc1nc2c(c(N3CC[C@H]3c3nn4ccc(Cl)c4c(=O)n3-c3ccccc3)n1)C(=O)CCN2 , thanks.
98.7

Also need O=c1c2c(Cl)ccn2nc([C@@H]2CCCN2c2ncnc3[nH]cc(F)c23)n1-c1ccccc1 , thanks.
94.3

Also need COc1ncc(-c2n[nH]c3ncnc(N4CCC[C@H]4c4nn5ccc(Cl)c5c(=O)n4-c4ccccc4)c23)cn1 , thanks.
95.1

Also need O=c1c2c(Cl)ccn2nc([C@@H]2COCCN2c2ncnc3[nH]cnc23)n1-c1ccccc1 , thanks.
85.8

Also need CC(=O)c1c[nH]c2ncnc(N3CCC[C@H]3c3nn4ccc(F)c4c(=O)n3-c3ccccc3)c12 , thanks.
95.7
